Tested on: NCI-H460
procedure.summary: cells
experimental.parameters: Homo sapiens, NCI-H460, 48 h
measured.parameter: IC50 (µM)
State just the number; it will be interpreted in µM.

Field request: IC50 | item: `CC[C@H](C)[C@H](NC(=S)Nc1cccc([N+](=O)[O-])c1)C(=O)N[C@H](Cc1ccccc1)C(=O)Nc1cccc(F)c1`
28.6

// IC50 lookup, key: `CC[C@H](C)[C@H](NC(=S)Nc1ccc(C(F)(F)F)cc1)C(=O)N[C@H](Cc1ccccc1)C(=O)Nc1cccc(Br)c1`
11.2

Please give the measured IC50 for this compound: `CC[C@H](C)[C@H](NC(=S)Nc1cccc([N+](=O)[O-])c1)C(=O)N[C@H](Cc1ccccc1)C(=O)Nc1ccc(Cl)c(Cl)c1`
32.3

Could you share which IC50 value was measured for `CC[C@H](C)[C@H](NC(=S)Nc1cccc([N+](=O)[O-])c1)C(=O)N[C@H](Cc1ccccc1)C(=O)Nc1ccc(Br)cc1` ?
35.2

Form field: reported IC50 of `CC[C@H](C)[C@H](NC(=S)Nc1cccc([N+](=O)[O-])c1)C(=O)N[C@H](Cc1ccccc1)C(=O)Nc1cccc(Cl)c1`
31.7

Report IC50 for `CC[C@H](C)[C@H](NC(=S)Nc1cccc([N+](=O)[O-])c1)C(=O)N[C@H](Cc1ccccc1)C(=O)Nc1ccc(F)cc1` please.
42.4

Request the reported IC50 associated with `CC[C@H](C)[C@H](NC(=S)Nc1cccc([N+](=O)[O-])c1)C(=O)N[C@H](Cc1ccccc1)C(=O)Nc1cccc(C(F)(F)F)c1`
6.74

Need IC50, item `CC[C@H](C)[C@H](NC(=S)Nc1cccc(C(F)(F)F)c1)C(=O)N[C@H](Cc1ccccc1)C(=O)Nc1ccc(Cl)c(Cl)c1`
15.5

====

System: HepG2
procedure.summary: Cytotoxicity against human doxorubicin-resistant HepG2 cells after 48 hrs by MTT assay
Type: functional, cell-based
experimental.parameters: HepG2, 48 h
Field: IC50. Provide a value for each of the compounds that follow.
Numbers only; they are read as µM.

Query (compound): `CC[C@H](C)[C@H](NC(=S)Nc1cccc(C(F)(F)F)c1)C(=O)N[C@H](Cc1ccccc1)C(=O)Nc1ccc(Cl)c(Cl)c1` ; field requested: IC50
29.6

Form field: reported IC50 of `CC[C@H](C)[C@H](NC(=S)Nc1cccc([N+](=O)[O-])c1)C(=O)N[C@H](Cc1ccccc1)C(=O)Nc1cccc(F)c1`
36.8

# lookup: IC50 of `CC[C@H](C)[C@H](NC(=S)Nc1cccc([N+](=O)[O-])c1)C(=O)N[C@H](Cc1ccccc1)C(=O)Nc1ccc(Br)cc1`
48.2

Sample `CC[C@H](C)[C@H](NC(=S)Nc1ccc(C(F)(F)F)cc1)C(=O)N[C@H](Cc1ccccc1)C(=O)Nc1cccc(Br)c1` — what was its IC50?
27.4

Tell me the measured IC50 of `CC[C@H](C)[C@H](NC(=S)Nc1cccc([N+](=O)[O-])c1)C(=O)N[C@H](Cc1ccccc1)C(=O)Nc1cccc(C(F)(F)F)c1` , please.
10.2

Need IC50 of `CC[C@H](C)[C@H](NC(=S)Nc1cccc([N+](=O)[O-])c1)C(=O)N[C@H](Cc1ccccc1)C(=O)Nc1ccc(F)cc1` , thanks.
48.5

Fill in: IC50 of `CC[C@H](C)[C@H](NC(=S)Nc1cccc([N+](=O)[O-])c1)C(=O)N[C@H](Cc1ccccc1)C(=O)Nc1ccc(Cl)c(Cl)c1` is ___
37.4

Please look up its IC50: `CC[C@H](C)[C@H](/N=C(/Nc1cccc(C(F)(F)F)c1)SC)C(=O)N[C@H](Cc1ccccc1)C(=O)Nc1cccc(C(F)(F)F)c1`
49.2
